Reported values of %Inh for individual entries
# System: CSF1R;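 note: KINOMEscan kinase panel screen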
# measurement-parameters: concentration: 1 μM, replicates: in singlicate; n = 1
Hey, just the number and the unit after it is fine.

Consider the worked cases shown below.
COc1ccc(Nc2nccc(N3CCC(NC(=O)c4cccc(NC(C)=O)c4)C3)n2)cc1 (centres unmarked) = 1%
COC(=O)c1c(-c2ccccc2)c2cc(Cl)ccc2c(=O)n1Cc1ccc(S(C)(=O)=O)cc1 = 23%
Cn1ccc2ncnc(Nc3ccc(Oc4cccc(Cl)c4)c(Cl)c3)c21 = 17%
c1ccc(-c2ccc3c(-c4ccnc(Nc5ccc6c(c5)OCCO6)n4)cnn3n2)cc1 = 1%

Now for the compound whose %Inh we want.
%Inh recorded for this compound, `CC(=O)Nc1n[nH]c2ncc(-c3ccccc3)cc12` , is 19%
